# Subject Of Test: 17-beta-hydroxysteroid dehydrogenase type 2 (Homo sapiens)
# Assay Name: Inhibition of 17beta-HSD2 (unknown origin) expressed in HEK293 cells lysate assessed as residual enzyme activity at 20 uM
# Assay type: cell-free
Assay Metric: Activity (%)

Worked cases, Activity given:
structure_smiles_string=COc1ccc(/C=N/NC(=O)COc2c(Br)cc(C)cc2Br)c(OC)c1 assay_metric=Activity unit_info=% assay_value=38
structure_smiles_string=O=C(CSc1nccc(O)n1)Nc1cccc2nsnc12 assay_metric=Activity unit_info=% assay_value=8
structure_smiles_string=O=S(=O)(Nc1ccc(F)c(Cl)c1)c1ccc(F)cc1 assay_metric=Activity unit_info=% assay_value=45
structure_smiles_string=Clc1ccc(Cl)c(-c2ccc(CNc3nn[nH]n3)o2)c1 assay_metric=Activity unit_info=% assay_value=29
structure_smiles_string=Cc1ccc(C)c(S(=O)(=O)Nc2ccc(O)cc2)c1 assay_metric=Activity unit_info=% assay_value=39
structure_smiles_string=COc1cc(C)c(S(=O)(=O)Nc2cccc(O)c2)cc1C assay_metric=Activity unit_info=% assay_value=15
structure_smiles_string=COc1ccc(S(=O)(=O)Nc2ccc(C)c(O)c2)cc1 assay_metric=Activity unit_info=% assay_value=47
structure_smiles_string=Cc1cc(Br)c(OCC(=O)N/N=C/c2c(C)cc(O)cc2O)c(Br)c1 assay_metric=Activity unit_info=% assay_value=64

(A) Cc1cc(C)c(S(=O)(=O)Nc2ccc(O)cc2)c(C)c1
(B) CCC(=O)c1ccc(OS(=O)(=O)c2ccc(NC(C)=O)cc2)cc1
(C) CC(C)(C)c1ccc(S(=O)(=O)Oc2ccccc2O)cc1
(D) O=S(=O)(Nc1ccc(O)c(Cl)c1)c1ccc(F)cc1
Exercise: Which order do these items take when sorted by rising Activity? List them. Present the labels in the sequence the task asks for.
Key: C, D, A, B
